System: HOP-62 NSCLC
Experiment: NCI-60 one-dose screen, 48 h (100 = growth as untreated, 0 = no growth, -100 = all killed)
Details: 10 µM unless noted
About 83,000 compounds went through this panel and 20% of them were active in at least one assay; those are over-represented in the sample as a whole.
Label rule met for high-side growth (at or above 40%) and rule not met for low-side growth (below it).

# Compound, Group Label
rows = [
    ("Nc1cc2ccccc2c(=O)n1NC(=O)c1ccc(I)cc1", "rule met"),
    ("COc1ccc(C(=O)/C=C/c2cc3c(cc2Br)OCO3)cc1S(N)(=O)=O", "rule not met"),
    ("Cc1ccc(C(=O)CSc2nc3ccc(C)cc3c(=O)n2-c2ccc(F)cc2)cc1", "rule not met"),
    ("COc1c(F)ccc(C(=O)Nc2ccc3nc(NC(=O)C4CCCN(S(=O)(=O)c5ccc(C(F)(F)F)cc5)C4)sc3c2)c1F (stereo not drawn)", "rule met"),
    ("Nc1nc(-c2ccccc2)c(N=Nc2ccc(Cl)cc2[N+](=O)[O-])s1", "rule met"),
    ("COc1ccc(-c2cc(C(=O)NCc3ccccc3)nn2-c2ccc(S(C)(=O)=O)cc2)cc1OC", "rule met"),
    ("N/C(=N\\c1nc2ccccc2s1)NC(=O)NCCCCCCO", "rule met"),
    ("Cc1ncsc1-c1ccc(CNC(=O)[C@@H]2C[C@@H](O)CN2C(=O)[C@@H](NC(=O)C2(F)CC2)C(C)(C)C)c(OCCOCCOCCOCCOc2nc(Nc3cc(S(C)(=O)=O)ccc3N[C@@H](c3cccc4c3OC(F)(F)O4)c3ncccc3Cl)nc(N3CCNCC3)n2)c1", "rule met"),
    ("COc1ccc(-c2nnc3ccc(N/N=C/c4ccc(O)cc4)nn23)cc1", "rule met"),
    ("CCS(=O)(=O)N1CCCC(C(=O)Nc2nc3ccc(NC(=O)c4ccc(F)c(OC)c4F)cc3s2)C1 (stereo not drawn)", "rule met"),
    ("CC(=O)Nc1ccc(C(=O)NC(=S)Nc2ccc(S(N)(=O)=O)cc2)cc1", "rule met"),
    ("Cn1cc(-c2cc3nc(-c4cn(C)c5ncccc45)cc(N)n3n2)c2ccccc21", "rule not met"),
    ("COc1cc(/C=C/C(=O)c2nnn(-c3ccc(Cl)cc3)c2C)cc(OC)c1OC", "rule not met"),
    ("COc1cc2oc(-c3cccc(NC(=O)[C@H](CC(N)=O)NC(=O)OC(C)(C)C)c3)cc(=O)c2c(OC)c1OC", "rule met"),
    ("CCCCSc1nc(Nc2ccc(C(C)=O)cc2)c(C#N)c(-c2ccc(OC)cc2)n1", "rule met"),
    ("Cc1cccc(NC(=O)[C@]23CCC(C)(C)CC2C2=CCC4[C@@]5(C)C[C@@H](O)[C@H](O)[C@@](C)(CO)C5CC[C@@]4(C)[C@]2(C)CC3)c1 (stereo partly drawn)", "rule met"),
    ("O=C(Nc1cccc(-n2cnc3cc(-c4ccc(O)cc4)ccc32)c1)C1CC1", "rule met"),
]

---

System: TK-10 renal
Test: NCI-60 one-dose screen, 48 h (100 = growth as untreated, 0 = no growth, -100 = all killed)
Conditions: 10 µM unless noted
About 83,000 compounds went through this panel and 20% of them were active in at least one assay; those are over-represented in the sample as a whole.
The entries below are paired with their reported growth.

# Molecule, Study Target, growth (%)
rows = [
    ("CCCS(=O)(=O)N1CCCC(C(=O)Nc2nc3ccc(NC(=O)c4ccc(F)c(OC)c4F)cc3s2)C1 (stereo not drawn)", "TK-10 renal", 75.3),
    ("Cn1cc(-c2cc(N)n3nc(-c4c[nH]c5ccccc45)cc3n2)c2cc(Br)cnc21", "TK-10 renal", -58.2),
    ("COc1cc2c(c(OC)c1OC)C(=O)CC(c1cccc(NC(=O)c3cccc(NC(=O)[C@H](C)NC(=O)OC(C)(C)C)c3)c1)O2 (stereo partly drawn)", "TK-10 renal", 101),
    ("O=C(O)c1cccc(-c2ccc(/C=N/NC(=O)c3[nH]c4ccc(Br)cc4c3-c3ccccc3)o2)c1", "TK-10 renal", 117),
    ("COc1ccc(/C=C/c2n(Cc3ccc4ccccc4c3)c3ccccc3[n+]2Cc2ccc3ccccc3c2)cc1", "TK-10 renal", -93.7),
    ("C/C(=N\\N=C1/C(=O)Nc2ccc(Cl)cc21)c1ccc2c(c1)Nc1ccccc1S2", "TK-10 renal", 22.4),
    ("CN(C)CCn1c2ccccc2c2nc3cc(C(F)(F)F)ccc3nc21", "TK-10 renal", 108),
    ("CC1CCCCN1CCCNC(=O)N/C(N)=N/c1nc2ccccc2s1 (stereo not drawn)", "TK-10 renal", 70.1),
    ("Brc1ccc(N/N=C/c2c[nH]c3ccc(Br)cc23)nc1", "TK-10 renal", -16.8),
    ("COc1c(F)ccc(C(=O)Nc2ccc3nc(NC(=O)C4CCCN(S(=O)(=O)c5ccc(C(F)(F)F)cc5)C4)sc3c2)c1F (stereo not drawn)", "TK-10 renal", 99.9),
    ("CN1CCN(/C(=N\\c2sc(-c3ccccc3)nc2-c2ccccc2)c2ccccc2)CC1", "TK-10 renal", 105),
    ("COc1cc2oc(-c3cccc(NC(=O)[C@H](Cc4ccccc4)NC(=O)OC(C)(C)C)c3)cc(=O)c2c(OC)c1OC", "TK-10 renal", 45.2),
    ("C=Cn1cc(C(=O)O)c(=O)c2cc(F)c(N3CCN(c4nccc(-c5nccs5)n4)CC3)cc21", "TK-10 renal", -13.2),
    ("COc1cc(C2CC(c3ccc(S(=O)(=O)NCCNc4nc(Nc5ccc(F)cc5)nc(N(C)C)n4)cc3)=Nc3c(N)nc(N)nc3N2)cc(OC)c1OC (stereo not drawn)", "TK-10 renal", 95.4),
    ("S=c1c2ccccc2nc2n1CCc1c-2[nH]c2ccccc12", "TK-10 renal", 69),
    ("Cn1cc(-c2cc3nc(-c4cn(C)c5ncc(Br)cc45)cc(N)n3n2)c2ccccc21", "TK-10 renal", -32.8),
    ("O=C(COc1ccc2c(c1)CCCC(=O)N2)NCc1ccccc1", "TK-10 renal", 110),
    ("CCOC(=O)c1ccc(Nc2nc(NN)nc(-c3ccc(OC)cc3)c2C#N)cc1", "TK-10 renal", 120),
    ("O=c1oc2ccccc2cc1-c1csc(N=Nc2c(O)[nH]c3ccc(Cl)cc23)n1", "TK-10 renal", 109),
    ("C=C1CCC2C3(C)COC(c4ccco4)OC3CCC2(C)C1CC(Sc1ccccc1)C1=CCOC1=O (stereo not drawn)", "TK-10 renal", 123),
    ("COc1cc(-c2ccc(/C=N/NC(=O)c3[nH]c4ccc(Br)cc4c3-c3ccccc3)s2)cc(OC)c1OC", "TK-10 renal", 106),
    ("COc1cc2c3c(n(CCCN4CCC[C@@H]4CO)c(=O)c2cc1OC)-c1cc2c(cc1C3=O)OCO2", "TK-10 renal", 91.4),
    ("COc1ccc2[nH]c(O)c(N=NC(=O)COc3ccc(NC(=O)Nc4ccccc4)cc3)c2c1", "TK-10 renal", 113),
    ("COc1ccc2c(c1)C(=N/N=C(\\C)c1ccc(OC)c(S(N)(=O)=O)c1)C(=O)N2", "TK-10 renal", 102),
    ("CCOC(=O)C(N=Nc1ccc(S(=O)(=O)N=C(N)N)cc1)C(C)=O (stereo not drawn)", "TK-10 renal", 88.6),
    ("N/N=C(\\N)c1c(N)nc(=S)[nH]c1-c1ccc(Cl)cc1Cl", "TK-10 renal", 147),
    ("Cc1cc2c(cc1Cl)C(=O)/C(=C/c1ccc(F)cc1)O2", "TK-10 renal", 125),
    ("CC(C)Sc1nc(NCCc2c[nH]c3ccccc23)c(C#N)c(-c2ccc(F)cc2)n1", "TK-10 renal", 96.3),
    ("O=C(NN1C(=O)/C(=C/C=C/c2ccc([N+](=O)[O-])o2)SC1=S)c1cccc(O)c1", "TK-10 renal", -96.3),
    ("COc1ccc(-c2ccc(SCC(=O)Nc3ccc(S(N)(=O)=O)cc3Br)nn2)cc1", "TK-10 renal", 116),
    ("C#CCOc1ccc(/C=N/Nc2nc(-c3cc4cc(OC)ccc4oc3=O)cs2)cc1OC", "TK-10 renal", 89.5),
    ("CC1=C(C#N)C2=NNCC(c3ccccc3)=NN2C(c2ccccc2)=C1", "TK-10 renal", 103),
    ("COc1cccc(/C=C/C(=O)c2ccc(OC)c(S(N)(=O)=O)c2)c1", "TK-10 renal", 21.2),
    ("COc1ccc(C(=O)/C=C/c2cccc(Br)c2)cc1S(N)(=O)=O", "TK-10 renal", -91.8),
    ("COc1ccc(NC(=O)Cn2c(/C=C/c3cccc([N+](=O)[O-])c3)nc3ccccc3c2=O)cc1", "TK-10 renal", 72.7),
    ("CCCCSc1nc(Nc2ccc(S(N)(=O)=O)cc2)c(C#N)c(-c2ccc(Cl)cc2)n1", "TK-10 renal", 77.1),
    ("CC(C)CSc1nc(NCCc2c[nH]c3ccccc23)c(C#N)c(-c2ccccc2)n1", "TK-10 renal", 110),
    ("CC(C)c1sc(NC(=O)c2cc(NC(=O)c3cc(NC(=O)c4nccn4C)cn3C)cn2C)nc1C(=O)NCCCN(C)C", "TK-10 renal", 97.9),
]
